EXPERIMENTAL DETAILS: Pharmacokinetics in Beagle dogs (Table 5)
Assay type: in vivo
MEASUREMENT PARAMETERS: male, Beagle, plasma; dog, IV (1 mg/kg); read-out: MRT0-∞
VALUE KIND: MRT inf (h)
Quick reminder: number only, in h, skip the unit.

Task: Identify MRT inf associated with the compound O=C(c1ccc(N2CCCC2)c([N+](=O)[O-])c1)N1CCN(c2ccnc3cc(Cl)ccc23)CC1
Result: 5.6

* * *

EXPERIMENTAL DETAILS: Pharmacokinetics in Beagle dogs (Table 5)
Type: in vivo
MEASUREMENT PARAMETERS: male, Beagle, plasma; dog, PO (10 mg/kg); read-out: MRT0-∞
VALUE KIND: MRT inf
Mention the unit after the number when you answer.

Task: Identify MRT inf associated with the compound O=C(c1ccc(N2CCCC2)c([N+](=O)[O-])c1)N1CCN(c2ccnc3cc(Cl)ccc23)CC1 [Compound D6]
Result: 7 h

* * *

Give IC50 for every item shown.
System: BT474 Cells
EXPERIMENTAL DETAILS: In vitro anticancer activity, monolayers (2D) and spheroids (3D), BT474
Assay type: cell-based
MEASUREMENT PARAMETERS: Homo sapiens, BT-474, monolayers (2D), read-out: IC50 (2D)
Quick reminder: number only, in µM, skip the unit.

Task: Identify IC50 associated with the compound CCN(CC)CCNC(=O)c1c(C)[nH]c(/C=C2\C(=O)Nc3ccc(F)cc32)c1C [Sutent, reference compound]
Result: 10

Task: Identify IC50 associated with the compound O=C(c1ccc(N2CCCC2)c([N+](=O)[O-])c1)N1CCN(c2ccnc3cc(Cl)ccc23)CC1
Result: 5

* * *

EXPERIMENTAL DETAILS: Pharmacokinetics in Sprague Dawley rats (Table 4)
Assay type: in vivo
MEASUREMENT PARAMETERS: Sprague Dawley, in vivo; rat, IV (2 mg/kg); read-out: Vz
Give Vd for every item shown.
Quick reminder: number only, in L/kg, skip the unit.

Task: Identify Vd associated with the molecule O=C(c1ccc(N2CCCC2)c([N+](=O)[O-])c1)N1CCN(c2ccnc3cc(Cl)ccc23)CC1
Result: 0.33

Task: Identify Vd associated with the molecule O=C(c1ccccc1F)N1CCN(c2ccnc3cc(Cl)ccc23)CC1 [Compound D2]
Result: 2.76

Task: Identify Vd associated with the molecule O=C(c1ccccc1)N1CCN(c2ccnc3cc(Cl)ccc23)CC1 [Compound D1]
Result: 1.57

* * *

EXPERIMENTAL DETAILS: Pharmacokinetics in Sprague Dawley rats (Table 4)
Format: in vivo
MEASUREMENT PARAMETERS: Sprague Dawley, in vivo; rat, PO (10 mg/kg)
VALUE KIND: half-life (h)
Quick reminder: number only, in h, skip the unit.

Task: Identify half-life associated with the compound O=C(c1ccc(N2CCCC2)c([N+](=O)[O-])c1)N1CCN(c2ccnc3cc(Cl)ccc23)CC1 [Compound D6]
Result: 1.79

Task: Identify half-life associated with the compound O=C(c1ccccc1)N1CCN(c2ccnc3cc(Cl)ccc23)CC1 [Compound D1]
Result: 2.76

Task: Identify half-life associated with the compound O=C(c1ccccc1F)N1CCN(c2ccnc3cc(Cl)ccc23)CC1 [Compound D2]
Result: 1.76

* * *

Give AUC(0-t) for every item shown.
EXPERIMENTAL DETAILS: Pharmacokinetics in Sprague Dawley rats (Table 4)
Format: in vivo
MEASUREMENT PARAMETERS: Sprague Dawley, in vivo; rat, PO (10 mg/kg)
Quick reminder: number only, in ng·h/mL, skip the unit.

Task: Identify AUC(0-t) associated with the compound O=C(c1ccc(N2CCCC2)c([N+](=O)[O-])c1)N1CCN(c2ccnc3cc(Cl)ccc23)CC1 [Compound D6]
Result: 19900

Task: Identify AUC(0-t) associated with the compound O=C(c1ccccc1)N1CCN(c2ccnc3cc(Cl)ccc23)CC1 [Compound D1]
Result: 24600

Task: Identify AUC(0-t) associated with the compound O=C(c1ccccc1F)N1CCN(c2ccnc3cc(Cl)ccc23)CC1 [Compound D2]
Result: 7890
